Measured TGI, listed per entry.
tested on: PC-3 prostate; assay: NCI tumour cell line growth inhibition, 48 h

>  <molecule>
Fc1ccc(-c2ncn(C3CCNCC3)c2-c2ccnc(Oc3cccc(C(F)(F)F)c3)n2)cc1

>  <operator>
=

>  <TGI, µM>
7.2

$$$$
>  <molecule>
O=c1[nH]nc(-c2nn(-c3ccc(Cl)cc3)cc2O)o1

>  <operator>
>

>  <TGI, µM>
100

$$$$
>  <molecule>
O=C(CCC1CCCCC1)NCc1ccc(C(=O)O)cc1

>  <operator>
>

>  <TGI, µM>
100

$$$$
>  <molecule>
COc1cc2c3c(n(CCCN)c(=O)c2cc1OC)-c1ccc(N(C)C)cc1C3=O

>  <operator>
=

>  <TGI, µM>
3.14

$$$$
>  <molecule>
COc1cc(Br)c(CC2C3=C(CCN2C(=O)C2CCC2)CC2(CC3)OCCO2)cc1O (stereo not given)

>  <operator>
>

>  <TGI, µM>
100

$$$$

###

Recorded GI50 by entry
tested on: A498 renal; experiment: NCI tumour cell line growth inhibition, 48 h
Where a SMILES comes first, the peptide text is derived from it.

>  <compound>
CCCCCCCCn1ccc2cc(NC(=O)Cn3cc(CN4CCN(CC)CC4)nn3)ccc21

>  <GI50>
2070 nM

$$$$
>  <compound>
CCC(C)C1NC(=O)C(CCCCN)NC(=O)C(CCCCN)NC(=O)C(CC(C)C)NC(=O)C(CCCCN)NC(=O)C(C(C)CC)NC(=O)C(C(C)C)NC(=O)C(C(C)CC)NC(=O)C(CCCCN)NC(=O)C(CCCCN)NC(=O)C(C)NC(=O)C(CCCCN)NC(=O)C(CC(C)C)NC1=O (stereo not drawn) (cyclo(AKKIVIKLKKILK); configuration not given here)

>  <GI50>
1660 nM

$$$$
>  <compound>
Cn1cc(C2=C(n3ccc4ccccc43)C(=O)NC2=O)c2ccccc21

>  <GI50>
> 25000 nM

$$$$
>  <compound>
Cn1cc(-c2csc(-c3c[nH]c4ccccc34)n2)c2cccnc21

>  <GI50>
688 nM

$$$$
>  <compound>
C#CC#CC#CC#CC#CC#CC#CC#CC[C@@H]1OC[C@H](COC(=O)O[C@@H](C(=O)O[C@H]2C[C@@]3(O)[C@@H](OC(=O)c4ccccc4)[C@@H]4[C@]5(OC(C)=O)CO[C@@H]5C[C@H](O)[C@@]4(C)C(=O)[C@H](OC(C)=O)C(=C2C)C3(C)C)[C@@H](NC(=O)c2ccccc2)c2ccccc2)O1

>  <GI50>
1390 nM

$$$$
>  <compound>
COC(=O)C(C)NP(=O)(OCc1ccc(Cn2cnc3c(N)ncnc32)cc1)Oc1ccccc1 (stereo not drawn)

>  <GI50>
> 100000 nM

$$$$
>  <compound>
N=C(N)c1ccc(-c2ccc(-c3ccccc3)s2)s1

>  <GI50>
< 10 nM

$$$$
>  <compound>
CCNCCNc1cc(-c2ccc(Cl)c(Cl)c2)c(C#N)c2nc3ccccc3n12

>  <GI50>
1380 nM

$$$$
>  <compound>
NS(=O)(=O)c1ccc(N=Nc2c(O)[nH]c3ccc(Cl)cc23)cc1

>  <GI50>
> 22000 nM

$$$$
>  <compound>
O=C1c2ccccc2S(=O)(=O)N1CSC(=S)N1CCOCC1

>  <GI50>
> 100000 nM

$$$$
>  <compound>
Fc1ccc(-c2ncn(C3CCNCC3)c2-c2ccnc(Oc3cccc(C(F)(F)F)c3)n2)cc1

>  <GI50>
1370 nM

$$$$
>  <compound>
O=Cc1cn(Cc2ccccc2)c2ccccc12

>  <GI50>
163 nM

$$$$
>  <compound>
CCOc1ccccc1C(=O)/C=C/c1cc2ccccc2[nH]c1=O

>  <GI50>
14.7 nM

$$$$

// data source = PubChem BioAssay (NCI)
